study system: WT Nav1.5-α subunits (Homo sapiens)
Construct: expressed in transfected cells; host or cells: HEK293 (transient transfection)
Sequence (Q14524 whole entry): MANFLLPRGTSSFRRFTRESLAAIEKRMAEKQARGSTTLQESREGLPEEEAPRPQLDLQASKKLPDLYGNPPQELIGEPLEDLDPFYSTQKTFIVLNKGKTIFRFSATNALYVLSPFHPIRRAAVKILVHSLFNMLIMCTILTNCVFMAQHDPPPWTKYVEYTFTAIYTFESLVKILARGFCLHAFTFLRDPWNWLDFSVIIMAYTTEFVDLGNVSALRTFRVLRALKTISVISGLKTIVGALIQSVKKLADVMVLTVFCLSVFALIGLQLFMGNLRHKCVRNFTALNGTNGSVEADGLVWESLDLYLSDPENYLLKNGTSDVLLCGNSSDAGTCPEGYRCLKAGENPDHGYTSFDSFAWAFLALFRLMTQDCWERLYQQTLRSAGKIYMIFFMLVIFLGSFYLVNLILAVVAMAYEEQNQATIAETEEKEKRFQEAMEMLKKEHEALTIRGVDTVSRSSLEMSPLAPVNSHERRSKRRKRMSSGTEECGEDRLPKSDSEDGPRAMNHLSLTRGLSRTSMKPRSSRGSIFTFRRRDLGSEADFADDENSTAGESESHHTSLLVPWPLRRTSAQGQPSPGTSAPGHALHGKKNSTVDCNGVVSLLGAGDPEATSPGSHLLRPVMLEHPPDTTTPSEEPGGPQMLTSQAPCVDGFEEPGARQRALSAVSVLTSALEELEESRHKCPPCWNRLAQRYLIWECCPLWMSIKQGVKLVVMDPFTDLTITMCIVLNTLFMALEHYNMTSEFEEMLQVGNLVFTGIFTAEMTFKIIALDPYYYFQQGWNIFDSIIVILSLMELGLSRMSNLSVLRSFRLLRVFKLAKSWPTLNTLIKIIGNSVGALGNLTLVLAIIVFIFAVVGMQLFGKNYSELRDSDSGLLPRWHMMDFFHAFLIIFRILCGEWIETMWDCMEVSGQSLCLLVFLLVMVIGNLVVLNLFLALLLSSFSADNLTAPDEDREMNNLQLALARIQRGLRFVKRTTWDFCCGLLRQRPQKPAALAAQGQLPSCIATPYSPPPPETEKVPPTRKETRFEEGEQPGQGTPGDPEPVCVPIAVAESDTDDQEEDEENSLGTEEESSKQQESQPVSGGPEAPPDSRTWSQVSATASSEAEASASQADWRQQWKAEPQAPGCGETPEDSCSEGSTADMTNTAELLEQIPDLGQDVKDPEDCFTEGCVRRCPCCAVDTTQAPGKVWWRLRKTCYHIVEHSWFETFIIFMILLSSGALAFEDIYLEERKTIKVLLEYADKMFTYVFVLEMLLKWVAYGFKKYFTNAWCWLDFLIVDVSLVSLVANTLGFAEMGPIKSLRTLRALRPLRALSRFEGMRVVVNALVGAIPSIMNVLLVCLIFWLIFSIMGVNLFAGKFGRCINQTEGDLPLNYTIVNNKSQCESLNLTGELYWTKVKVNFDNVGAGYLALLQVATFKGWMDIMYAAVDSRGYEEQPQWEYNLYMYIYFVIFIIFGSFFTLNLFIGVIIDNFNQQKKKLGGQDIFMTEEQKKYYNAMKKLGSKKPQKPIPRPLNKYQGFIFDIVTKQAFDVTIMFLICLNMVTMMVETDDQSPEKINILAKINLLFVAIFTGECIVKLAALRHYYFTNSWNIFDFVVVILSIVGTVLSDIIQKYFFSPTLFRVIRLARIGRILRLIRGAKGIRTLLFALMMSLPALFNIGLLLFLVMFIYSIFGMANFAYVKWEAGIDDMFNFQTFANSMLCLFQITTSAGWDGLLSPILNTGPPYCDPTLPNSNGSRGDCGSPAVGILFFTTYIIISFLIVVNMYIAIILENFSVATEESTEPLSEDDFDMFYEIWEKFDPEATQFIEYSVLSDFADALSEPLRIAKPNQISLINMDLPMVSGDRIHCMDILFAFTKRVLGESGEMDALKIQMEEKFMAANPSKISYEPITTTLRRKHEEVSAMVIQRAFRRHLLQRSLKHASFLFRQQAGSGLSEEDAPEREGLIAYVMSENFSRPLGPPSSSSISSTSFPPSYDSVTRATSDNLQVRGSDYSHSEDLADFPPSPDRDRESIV
assay explanation: Whole-cell patch clamp, single voltage-pulse protocol (peak INa, conductance, fast inactivation) in transiently transfected HEK293 cells
Type: cell-based
test parameters: 100 μM
Protocol: In one set of studies, we used a whole-cell patch clamp technique with single voltage-pulse protocols (FIGS. 3A-B) to characterize compounds ZINC38767171, ZINC39699427, ZINC40014265, ZINC64470729, ZINC64470737 and ZINC64470745. […] The six compounds were screened against wild type (WT) Nav1.5-α subunits at the optimal physiological temperature of 37° C. […] The α subunits were co-expressed with the β1 subunit and eGFP (enhanced green fluorescence protein) in a 2:1:2 ratio, respectively. […]
reported endpoint: fast inactivation onset time constant FI −30 mV (ms)
# number only, unit ms dropped from output

>>> measured_value("COc1cccc(NS(=O)(=O)c2ccc3c(c2)=NC(=O)N=3)c1 [ZINC64470729]")
0.76
>>> measured_value("Cc1cc(F)ccc1NS(=O)(=O)c1ccc2c(c1)=NC(=O)N=2 [ZINC64470745]")
0.81
>>> measured_value("O=C1N=c2ccc(C(=O)NCc3ccco3)cc2=NC1=O [ZINC38767171]")
1.05
>>> measured_value("CN(C)[C@@H](CNC(=O)c1ccc2c(c1)=NC(=O)C(=O)N=2)c1ccco1 [ZINC40014265]")
0.69

Query compound follows.
fast inactivation onset time constant FI −30 mV value, target or system WT Nav1.5-α subunits (Homo sapiens), for C=CCNS(=O)(=O)c1ccc2c(c1)=NC(=O)N=2 [ZINC39699427] : 0.72
